Reference source for all entries: patent US20220235118A1

Kindly state fold over background for each of the entries shown.
Target: T1, SARS-CoV-2 Spike RBD N439K (SARS-CoV-2, UniProt P0DTC2 319-541)
T1 construct: domain: RBD
Assay: HTRF, soluble RBD construct
The answer is to be given in fold over background; state only the numeric part.

[ask] Output fold over background of PR193_00018 (antibody, V domains shown, also called IMM20184; IMM200184) VH: EVQLVESGGGLVQPGGSLRLSCSASGFTFSSFWMSWVRQAPGKGLEWVATIREDGSEKYYVDSVKGRFSISRDNAKNSLYLQMNSLRAEDTAVYYCARSKWLRGSFDYWGQGTLVTVSS VL: NFMLTQPHSVSESPGKTVTISCTRRSGSIASNYVQWYQQRPGSAPTTVIYEDNQRPSGVPDRFSGSIDSSSNSASLTISGLQTEDEADYYCQSYDSSNPPGASWVFGGGTKLTVL
[reply] 4.43

[ask] Output fold over background of PR199_00255 (antibody, V domains shown, also called IMM20279; PR190_00255) VH: QVQLVESGGGVVQPGRSLRLSCAASGFTFSTYGMHWVRQAPGKGLEWVAVIWYNGINKHYADSVKGRFTISRDNSKNTLYLQMSSLRVEDTAVYYCARDWGTLTTLFDFWGQGTLVTVSS VL: DIQMTQSPSSLSASVGERATITCRASQSISSHLNWYQQKPGKAPKFLIYGASSLQSGVPSRFSGSGSGTDFTLTISSLQPEDFATYYCQQSYSTPPWTFGQGTKVEIK
[reply] 6.09
